Listed below: cAMP EC50, Batch 2 values for each entry.
measurement_target: T1, mouse GLP-1 receptor (mouse, UniProt O35659 22-463)
T1 sequence (looked up): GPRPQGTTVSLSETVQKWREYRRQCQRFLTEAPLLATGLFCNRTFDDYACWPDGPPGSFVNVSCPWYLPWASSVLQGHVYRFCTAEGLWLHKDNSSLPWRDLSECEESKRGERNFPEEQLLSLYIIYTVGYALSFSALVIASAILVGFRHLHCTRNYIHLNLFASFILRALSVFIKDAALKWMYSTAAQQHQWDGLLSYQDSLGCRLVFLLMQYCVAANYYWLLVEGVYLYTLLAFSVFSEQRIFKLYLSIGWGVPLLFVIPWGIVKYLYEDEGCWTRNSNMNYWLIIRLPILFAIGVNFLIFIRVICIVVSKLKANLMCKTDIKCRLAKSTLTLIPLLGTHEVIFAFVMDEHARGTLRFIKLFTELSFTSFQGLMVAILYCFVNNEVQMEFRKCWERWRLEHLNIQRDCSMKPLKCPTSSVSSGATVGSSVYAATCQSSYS
assay_remarks: cell-based or functional assay
Answer in nM, number only, no unit symbol.

[[record]]
binder = "IP200 (Fc fusion) YSQGTFTSDYSKILEEEAVRLFIEWLVKGPAAAGGSGSTASSGSGSATGGGGAATHTCPPCPAPEF"
reported_value = 0.34

[[record]]
binder = "IP328 (Fc fusion) YSEGTFTSDYSKLLEEEAVRLFIEWLLAGGGGGGGSGGGGSGGGGSGGGGSGGGGSGGGGSGGGGSGGGGSA"
reported_value = 1.3

[[record]]
binder = "IP296 (Fc fusion) YSEGTFTSDYSKLLEEEAVRCFIEWLVKGGPSSGAPPCSGGGGGGGGGGGGGGGGGGGGGGGGACPPC"
reported_value = 0.6

[[record]]
binder = "IP149 (Fc fusion) YSQGTFTSDYSKLLEEEAVRLFIEWLVKGPAPPGGSGSTASSGSGSATGGGGAATHTCPPCPAPEF"
reported_value = 0.37


--- query ---
Quick note, cAMP EC50, Batch 2 for IP325 (Fc fusion) YSEGTFTSDYSKLLEEEAVRLFIEWLVKGPGGGGGSGGGGSGGGGSGGGGSGGGGSGGGGSGGGGSGGGGSA landed at 0.488
